- assayText: Aqueous solubility, Japanese Pharmacopoeia Second Fluid (pH 6.8)
- Type: physicochemical
- testContext: Japanese Pharmacopoeia Second Fluid, pH 6.8, Japanese Pharmacopoeia Second Fluid (pH 6.8); read-out: Aq. Sol.
Square brackets hold non-standard residues; d marks the D form. Peptide text beside a SMILES is read from it. Gly(N-CH2-oxan-4-yl) = O=C(O)CNCC1CCOCC1; NCyclohexylmethylGly = O=C(O)CNCC1CCCCC1; NMeA = CN[C@@H](C)C(=O)O; NEtG = CCNCC(=O)O
observationType: solubility (µg/mL)
Entry rule: numbers only, all in µg/mL.

Incoming: Query (compound): CCN1CC(=O)N[C@@H](CC(C)C)C(=O)N(C)[C@@H](C)C(=O)N[C@@H](CC(C)C)C(=O)N2CCC[C@@H]2C(=O)N(CC2CCCCC2)CC(=O)N[C@@H](CC(C)C)C(=O)N(C)[C@@H](C)C(=O)N[C@@H](Cc2ccccc2)C(=O)N2CCC[C@@H]2C1=O [Compound A08] (cyclo(F[dP][NEtG]L[NMeA]L[dP][NCyclohexylmethylGly]L[NMeA])) ; field requested: solubility
Outgoing: 6.8

Now look at this entry.
Incoming: Query (compound): CCN1CC(=O)N[C@@H](CC(C)C)C(=O)N(C)[C@@H](C)C(=O)N[C@@H](CC(C)C)C(=O)N2CCC[C@@H]2C(=O)N(CC2CCOCC2)CC(=O)N[C@@H](CC(C)C)C(=O)N(C)[C@@H](C)C(=O)N[C@@H](Cc2ccccc2)C(=O)N2CCC[C@@H]2C1=O [Compound A09] (cyclo([NEtG]L[NMeA]L[dP][Gly(N-CH2-oxan-4-yl)]L[NMeA]F[dP])) ; field requested: solubility
Outgoing: 640

* * *

- assayText: Aqueous solubility, Japanese Pharmacopoeia Second Fluid (pH 6.8)
- Assay type: physicochemical
- testContext: Japanese Pharmacopoeia Second Fluid, pH 6.8, pure compounds, values in text; read-out: Aqueous solubility
Square brackets hold non-standard residues; d marks the D form. Peptide text beside a SMILES is read from it. Gly(N-CH2-oxan-4-yl) = O=C(O)CNCC1CCOCC1; NMeL = CN[C@@H](CC(C)C)C(=O)O; NMeA = CN[C@@H](C)C(=O)O; NEtG = CCNCC(=O)O
Recorded measurements of solubility, one per entry
Entry rule: numbers only, all in µg/mL.

Incoming: Query (molecule): CCN1CC(=O)N[C@@H](CC(C)C)C(=O)N2CCC[C@@H]2C(=O)N(C)[C@@H](CC(C)C)C(=O)N[C@@H](C)C(=O)N(CC2CCOCC2)CC(=O)N[C@@H](Cc2ccccc2)C(=O)N2CCC[C@@H]2C(=O)N(C)[C@@H](CC(C)C)C(=O)N[C@@H](C)C1=O [Compound B09] (cyclo(A[NEtG]L[dP][NMeL]A[Gly(N-CH2-oxan-4-yl)]F[dP][NMeL])) ; field requested: solubility
Outgoing: 2200

Incoming: Now this one: CCN1CC(=O)N[C@@H](CC(C)C)C(=O)N(C)[C@@H](C)C(=O)N[C@@H](CC(C)C)C(=O)N2CCC[C@@H]2C(=O)N(CC2CCOCC2)CC(=O)N[C@@H](CC(C)C)C(=O)N(C)[C@@H](C)C(=O)N[C@@H](Cc2ccccc2)C(=O)N2CCC[C@@H]2C1=O [Compound A09] (cyclo([NEtG]L[NMeA]L[dP][Gly(N-CH2-oxan-4-yl)]L[NMeA]F[dP]))
Outgoing: 600

Incoming: Now this one: CCN1CC(=O)N[C@@H](CC(C)C)C(=O)N2CCC[C@@H]2C(=O)N(C)[C@@H](CC(C)C)C(=O)N[C@@H](C)C(=O)N(CC2CCOCC2)CC(=O)N[C@@H](C)C(=O)N2CCC[C@@H]2C(=O)N(C)[C@@H](CC(C)C)C(=O)N[C@@H](C)C1=O [Compound B03] (cyclo(A[NEtG]L[dP][NMeL]A[Gly(N-CH2-oxan-4-yl)]A[dP][NMeL]))
Outgoing: 1900
